Biological target: T1, human CEACAM5 (carcinoembryonic antigen, CEA) on cells (human, UniProt P06731 35-685)
T1 construct: endogenous on MKN45 gastric adenocarcinoma cells; full-length cDNA stably transfected in the CHO-K1 clones; also called huCEACAM5; MKN45 cells
T1 sequence: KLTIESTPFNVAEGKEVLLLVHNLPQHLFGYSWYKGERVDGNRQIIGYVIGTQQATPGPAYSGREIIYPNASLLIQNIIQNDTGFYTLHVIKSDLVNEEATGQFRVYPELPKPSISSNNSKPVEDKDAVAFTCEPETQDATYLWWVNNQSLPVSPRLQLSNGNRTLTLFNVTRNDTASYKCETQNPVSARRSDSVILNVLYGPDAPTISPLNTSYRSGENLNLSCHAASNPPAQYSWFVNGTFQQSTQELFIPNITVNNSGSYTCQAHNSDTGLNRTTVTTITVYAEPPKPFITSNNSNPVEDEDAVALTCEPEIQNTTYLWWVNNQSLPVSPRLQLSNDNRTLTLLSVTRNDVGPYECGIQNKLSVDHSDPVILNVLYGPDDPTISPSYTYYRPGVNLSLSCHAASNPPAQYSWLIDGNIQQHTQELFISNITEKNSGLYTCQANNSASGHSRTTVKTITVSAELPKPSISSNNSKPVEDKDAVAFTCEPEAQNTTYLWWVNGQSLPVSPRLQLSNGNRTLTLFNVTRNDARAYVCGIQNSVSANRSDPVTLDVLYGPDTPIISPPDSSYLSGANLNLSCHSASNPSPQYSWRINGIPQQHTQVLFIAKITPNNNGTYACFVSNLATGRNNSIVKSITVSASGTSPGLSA
Assay: flow cytometry, MKN45 cells
Design: unit not given beside the values
quantity-name: AUC
In your answer, state the number alone without any accompanying words.

P1AE3120 (antibody, IgG1, V domains shown, huIgG1 P329G LALA; also called MFE-H29 / MFE-L24) VH: QVQLVQSGAEVKKPGSSVKVSCKASGFNIKDSYMHWVRQAPGQGLEWMGWIDPENGDTEYAPKFQGRVTITTDESTSTAYMELSSLRSEDTAVYYCNEGTPTGPYYFDYWGQGTLVTVSS VL: DIQMTQSPSSLSASVGDRVTITCRASSSVSYMHWYQQKPGKAPKLLIYSTSNLASGVPSRFSGSGSGTDFTLTISSLQPEDFATYYCQQRSSYPLTFGGGTKLEIK ... 24200

We next turn to a different binder, shown below.
QUERY: Read off the recorded AUC for P1AE3122 (antibody, IgG1, V domains shown, huIgG1 P329G LALA; also called MFE-H27 / MFE-L24) VH: QVQLVQSGAEVKKPGASVKVSCKASGFNIKDSYMHWVRQAPGQGLEWMGWIDPENGDTEYAPKFQGRVTMTTDTSISTAYMELSRLRSDDTAVYYCARGTPTGPYYFDYWGQGTLVTVSS VL: DIQMTQSPSSLSASVGDRVTITCRASSSVSYMHWYQQKPGKAPKLLIYSTSNLASGVPSRFSGSGSGTDFTLTISSLQPEDFATYYCQQRSSYPLTFGGGTKLEIK
RESULT: 422
